pest or weed control at 140 g/ha values by entry
test system: Key Broadleaf Weed and Crop Species; test: Post-Emergent Test II (Table 5); type: in vivo; settings: Euphorbia heterophylla, post-emergence, 336 h, EPHHL: wild poinsettia (Euphorbia heterophylla), application rate 140 (kg ai/ha; footnote: g ai/ha), read-out: Visual Growth Reduction (%) 14 Days After Application EPHHL

smiles.code	pest or weed control at 140 g/ha
Nc1c(F)c(-c2ccc(C(F)F)nc2)nc(C(=O)O)c1Cl	95 to 100%
COC(=O)c1nc(-c2ccc(C(F)(F)F)nc2F)c(F)c(N)c1Cl	85 to 94%
COC(=O)c1nc(-c2ccc(Cl)c(F)c2OC)c(F)c(N)c1Cl	45 to 59%
COc1c(-c2cc(N)c(Cl)c(C(=O)O)n2)ccc(Cl)c1F	0 to 29%
COc1c(N)nc(-c2ccc(Cl)c(F)c2C)nc1C(=O)O	0 to 29%
COC(=O)c1nc(-c2ccc(C3CC3)nc2)c(F)c(N)c1Cl	95 to 100%
COC(=O)c1nc(-c2ccc(C(F)(F)F)nc2)nc(N)c1Cl	0 to 29%
C=Cc1c(-c2cc(N)c(Cl)c(C(=O)O)n2)ccc(Cl)c1F	45 to 59%

Summary for this compound, `COC(=O)c1nc(-c2ccc(Cl)c(OC)c2C(F)F)cc(N)c1Cl` : pest or weed control at 140 g/ha is 60 to 74%

Looking up `COC(=O)c1nc(-c2ccc(I)c(F)c2C)cc(N)c1Cl` , I found its pest or weed control at 140 g/ha recorded as 0 to 29%

Form field pest or weed control at 140 g/ha, entry `Nc1c(F)c(-c2ccc(I)nc2)nc(C(=O)O)c1Cl` : 95 to 100%

Note to self: pest or weed control at 140 g/ha recorded for `COC(=O)c1nc(-c2ccc(Cl)c(F)c2C)nc(N)c1Cl` was 0 to 29%

get_value(item= `COC(=O)c1nc(-c2ccc(C(F)(F)F)nc2F)nc(N)c1Cl` , readout=pest or weed control at 140 g/ha) returns 0 to 29%
